Listed here are molecules together with their documented Kcat.
- test.protocol: Standard protocol for determination of kcat and KM (continuous spectrophotometric assay, Acetyl CoA hydrolysis at 235 nm)
- Assay type: biochemical
- condition.info: purified protein; about 23° C.; 20 mM HEPES pH 6.8, 10% ethylene glycol, 0.2 mM acetyl CoA

- molecule: "SEQ ID NO: 514: GAT polypeptide (protein, GAT2_21F1, GAT polypeptide) MIEVKPINAEDTYEIRHRILRPNQPLEACMYETDLLGGTFHLGGYYRGKLISIASFHQAEHSELEGQKQYQLRGMATLEGYREQKAGSTLIRHAEELLRKKGADLLWCNARTSVSGYYKKLGFSEQGGVYDIPPIGPHILMYKKLT"
  Kcat, s⁻¹: 0.07
- molecule: "SEQ ID NO: 336: GAT polypeptide (protein, 15_4H3, GAT polypeptide) MIEVKPINAEDTYEIRHRILRPNQPLEACKYETDLLGGTFHLGGYYRGKLVSIASFHQAEHPELEGQKQYQLRGMATLEEYREQKAGSTLIRHAEELLRKKGADLLWCNARTSASGYYKKLGFSEQGEVYDIPPTGPHILMYKKLT"
  Kcat, s⁻¹: 1.56

From: patent US8008547B2
